Give TGI for every item shown.
- Tested on: DU-145 prostate
- Method description: NCI tumour cell line growth inhibition, 48 h
State just the number; it will be interpreted in µM.

Record summary for `CN(C)c1ccc(/C=c2/c3ccccc3n3c2c2ccccc2[n+]3C)cc1` : reported TGI = 4.19

Record summary for O=C1/C(=C/c2ccccc2)CCCC1CN1CCCCC1 (stereo not given) : reported TGI = 27.3

Record summary for `COc1cc2c3c(n(CCCN)c(=O)c2cc1OC)-c1ccccc1C3=O` : reported TGI = 4.81

Record summary for `Cc1c(N2CCCC2)cc2c(c1NC(=O)c1ccccc1Cl)C(C)(C)CC2(C)C` : reported TGI = 29.3

###

- Tested on: MALME-3M melanoma
- Method description: NCI tumour cell line growth inhibition, 48 h
Attribute measured: TGI (µM)
State just the number; it will be interpreted in µM.

GET /values?item= `N=C(N)c1ccc(OCc2cccc(COc3ccc(C(=N)N)cc3)c2)cc1` &system= MALME-3M melanoma returns TGI: 6.01

GET /values?item= `F` &system= MALME-3M melanoma returns TGI: 5060

GET /values?item= `COc1cc2c[n+](C)c3c4cc(OC)c(OC)cc4c(OC)cc3c2cc1OC` &system= MALME-3M melanoma returns TGI: 9.44

GET /values?item= `O=C(O)c1cc2ccccc2c(N=Nc2ccccc2)c1O` &system= MALME-3M melanoma returns TGI: 26.6

GET /values?item= `CS/C(=N\C(=S)N(C)C)N(c1ccccc1)c1nc(=[N+](C)C)ss1` &system= MALME-3M melanoma returns TGI: 7.44

###

- Test system: UACC-62 melanoma
- Method description: NCI tumour cell line growth inhibition, 48 h
Give TGI for every item shown.
State just the number; it will be interpreted in µM.

Record summary for `CC(=O)NCCc1c2c(c3nccc4c3c1Nc1ccccc1-4)OCS2` : reported TGI = 19.3

Record summary for COc1ccc(/C=C2\CCC(C)C3=C(c4ccc(OC)c(OC)c4)C(C#N)=C(N)OC32)cc1OC (centres undefined) : reported TGI = 7.34

Record summary for `CC(C)(C)c1cc(C(=O)Nc2cc(Br)c(Br)cc2S(N)(=O)=O)cc(C(C)(C)C)c1O` : reported TGI = 23.1

Record summary for `Cc1nc(-c2cccc(Nc3nc(-c4ccc(Cl)cc4)cs3)c2)cs1` : reported TGI = 15

Record summary for `Cc1c(N2CCCC2)cc2c(c1NC(=O)c1ccccc1Cl)C(C)(C)CC2(C)C` : reported TGI = 23.2

Record summary for `Nc1ccc2c(c1)C(=O)C(=O)c1c-2nc2ccccn12` : reported TGI = 0.782

Record summary for `O=C(Nc1cccc(-n2ccc3c(NC(=O)c4ccccc4)nccc32)c1)c1ccc(N2CCOCC2)c(C(F)(F)F)c1` : reported TGI = 22.5

Record summary for `CC(=O)ON(C(C)=O)c1ccc(-c2nc3ccccc3s2)cc1` : reported TGI = 48.7

Record summary for `COc1cc2c3c(n(CCCN)c(=O)c2cc1OC)-c1ccccc1C3=O` : reported TGI = 16

Record summary for COc1ccc(/C=C2\CCCC(CN(C)C)C2=O)cc1 (centres undefined) : reported TGI = 4.13

###

Give TGI for every item shown.
- Tested on: TK-10 renal
- Method description: NCI tumour cell line growth inhibition, 48 h

Record summary for COc1cc(C2SC(N)=Nc3c2c(C)nn3C(=O)c2ccccc2O)cc(OC)c1OC (stereo not drawn) : reported TGI = > 10 µM

Record summary for `O=C1OC(c2ccccc2)=N/C1=C\c1cccnc1` : reported TGI = > 100 µM

Record summary for `Brc1ccc2[nH]cc(-c3csc(-c4ccccn4)n3)c2c1` : reported TGI = > 100 µM

Record summary for Cc1ccccc1NC(=O)C(=O)C(C#N)c1ccc(Cl)cc1 (stereo not drawn) : reported TGI = > 100 µM

Record summary for C/C=C/[C@H]1O[C@@](O)([C@@H](C)[C@H](O)[C@H](C)[C@H]2OC(=O)/C(OC)=C/C(C)=C/[C@@H](C)[C@@H](O)[C@@H](CC)[C@@H](O)[C@H](C)C/C(C)=C/C=C/[C@@H]2OC)C[C@H](OC2CC(O)C(O)C(C)O2)[C@@H]1C (stereo partly drawn) : reported TGI = 18.9 µM

Record summary for `COc1ccc(-c2cc(-c3cc(Cl)ccc3Cl)nc3n[nH]c(N)c23)cc1` : reported TGI = > 100 µM

Record summary for CC1(C)CCC[C@@]2(C)C1CCC1(C)C(CCc3ccoc3)/C(=C/OS(=O)(=O)O)CCC12 (stereo partly drawn) (tested in a mixture with another compound) : reported TGI = > 100 µM

Record summary for `C=C1C(=O)O[C@H]2[C@H]1CC/C(CNC(=O)Cc1c[nH]c3ccccc13)=C\CC[C@@]1(C)O[C@@H]21` : reported TGI = 2.01 µM

###

- System: NCI-H522 lung
- Method description: NCI tumour cell line growth inhibition, 48 h
Give TGI for every item shown.
State just the number; it will be interpreted in nM.

Record summary for `FC(F)(F)Oc1cccc(-c2cnc3ccc(-c4ccncc4)nn23)c1` : reported TGI = 2820

Record summary for `O=C(Nc1cccc(-n2ccc3c(NC(=O)c4ccccc4)nccc32)c1)c1ccc(N2CCOCC2)c(C(F)(F)F)c1` : reported TGI = 545

###

- Tested on: HCT-116 colon
- Method description: NCI tumour cell line growth inhibition, 48 h
Give TGI for every item shown.
State just the number; it will be interpreted in µM.

Record summary for `COc1cc(NS(C)(=O)=O)ccc1Nc1c2ccc([N+](=O)[O-])cc2nc2c(C)cccc12` : reported TGI = 10.7

Record summary for `CO/N=C(\C)c1ccc(Nc2c3ccccc3nc3occc23)cc1` : reported TGI = 12.1

Record summary for `O=C(NC1CCN(Cc2ccccc2)CC1)c1cc(-c2ccncc2)nc2ccc(Cl)cc12` : reported TGI = 33.9

Record summary for `COc1ccc2nc3cc(Cl)ccc3c(NCCCN(Cc3cc(OC)c(OC)c(OC)c3)Cc3cc(OC)c(OC)c(OC)c3)c2c1` : reported TGI = 1.7

###

- Tested on: MDA-MB-435
- Method description: NCI tumour cell line growth inhibition, 48 h
Attribute measured: TGI

Record summary for O=C(O)c1ccccc1NC(c1ccccc1)c1ccc2cccnc2c1O (stereo not given) : reported TGI = > 66.9 µM

Record summary for COc1ccc(/C=C2\CCC(C)C3=C(c4ccc(OC)c(OC)c4)C(C#N)=C(N)OC32)cc1OC (stereo not given) : reported TGI = 10.1 µM

Record summary for `O=C(CN1CCN(Cc2ccccc2)CC1)c1ccc2[nH]c(=O)oc2c1` : reported TGI = > 100 µM

Record summary for `CCOC(=O)c1cnn2c1ncc1c(=O)n(NC(N)=O)ccc12` : reported TGI = > 100 µM

Record summary for CCCCCCCC1C(C)c2c([nH]c3ccccc23)C2C(=O)N(c3ccc(OC)cc3)C(=O)C21 (stereo not given) : reported TGI = > 8.39 µM

Record summary for `COc1cc(C(=O)/C=C/c2c(C)n([O-])c3ccc(C)cc3[n+]2=O)cc(OC)c1OC` : reported TGI = > 63.4 µM

Record summary for `Brc1ccc2[nH]cc(-c3csc(-c4ccccn4)n3)c2c1` : reported TGI = > 100 µM

Record summary for C=C(C)C(=O)O[C@H]1C/C(CO)=C/CCC(=C)C(OC(C)=O)[C@H]2OC(=O)C(=C)[C@H]12 (stereo not given in full) : reported TGI = 17.8 µM

Record summary for `COc1cc(Cc2cc3c(c(C(=O)O)c2Br)OCO3)cc(OC)c1OC` : reported TGI = > 100 µM

Record summary for `CC[C@]12CCCN3CCc4c(n(c5ccccc45)C(=O)C1)[C@@H]32` : reported TGI = 4.41 µM

Record summary for `CC(=N\N)/C(C)=N/N=C(C)/C(C)=N/N=C(C)/C(C)=N/N=C(C)/C(C)=N/N` : reported TGI = > 100 µM

Record summary for `NNC(=O)CSc1nc2ccc(I)cc2c(=O)n1Cc1ccccc1` : reported TGI = > 100 µM

Record summary for `Cc1ccc2c3c1O[C@H]1c4[nH]c5ccccc5c4C[C@@]4(O)[C@@H](C2)N(C)CC[C@]314` : reported TGI = 28.3 µM

Record summary for `COc1cc2c(/C=C3/C(=O)N(C)c4ccccc43)c(Cl)[nH]c2cc1C` : reported TGI = 0.038 µM

Record summary for `COc1ccc(OC)c(/C=N/NC(=O)Cc2csc3nc(-c4ccc(Br)cc4)cn23)c1` : reported TGI = 16.2 µM

Record summary for `O=c1cc(NCCCCCO)[nH]c(=O)[nH]1` : reported TGI = > 100 µM

Record summary for `O=C1OC[C@@H]2[C@@H](O)CCCCCN12` : reported TGI = > 100 µM

Record summary for C=CCN1CCC(OC(=O)C(O)(C#CC)C2CCCC2)CC1 (stereo not given) : reported TGI = > 100 µM

Record summary for CC1CC(C)C(O)C(C2CC(CC(=O)NC3CCCCC3)CC(=O)O2)C1 (stereo not given) : reported TGI = > 100 µM

Record summary for COc1ccc(C2CC(c3cc(OC)c(OC)c(OC)c3)=NO2)cc1OCCCCOc1cc2c(cc1OC)C(=O)N1CCC[C@H]1C=N2 (stereo not given in full) : reported TGI = > 100 µM
